system: CAKI-1 renal; experiment: NCI-60 one-dose screen, 48 h (100 = growth as untreated, 0 = no growth, -100 = all killed); details: 10 µM unless noted
About 83,000 compounds went through this panel and 20% of them were active in at least one assay; those are over-represented in the sample as a whole.
Provide the reported growth of each item.
Number in %, nothing else.

Query string: GET /values?readout=growth&item= COc1cc2c(cc1-c1c(C)noc1C)ncc1nc(C3CCC(F)(F)CC3)n([C@@H](C)COC(F)F)c12
Result string: 24.3

Query string: Find the recorded growth belonging to Oc1ccccc1/C=N\NC(=S)Nc1ccc(F)cc1 and report it.
Result string: -4.58

Query string: Please look up its growth: COc1ccccc1CNc1nc(N)nc2[nH]c3ccc(O)cc3c12
Result string: 80.5

Query string: May I ask what growth has been recorded for COC(=O)[C@]12CC[C@@H](C)[C@H](C)[C@@H]1C1=CC[C@@H]3[C@@]4(C)C[C@@H](O)OC[C@](C)(C=O)C4C(=O)C[C@@]3(C)[C@]1(C)CC2 (some centres not stated) ?
Result string: 7.25

Query string: What value of measured growth is listed for CC1(C)[C@@H](O)CC[C@]2(C)[C@H]3CC[C@@H]4[C@H]5[C@H](C(=O)/C=C/c6ccc(C(F)(F)F)cc6)CC[C@]5(CO)CC[C@@]4(C)[C@]3(C)CC[C@@H]12 ?
Result string: 47.4

Query string: Please report the recorded growth for N#C/C(=C\c1ccc(-c2cccc(C(F)(F)F)c2)o1)c1nc(-c2ccco2)cs1 .
Result string: 87.1

Query string: I would be grateful if you could share the reported growth for COc1cc2ncnc(Nc3ccc(Oc4ccnc(C)c4)c(C)c3)c2cc1NC(=O)CC1CCSS1 (configuration not stated) .
Result string: 3.34

Query string: Can you look up the measured growth of COc1ccc(/C=C2\N=C(c3ccccc3)N(c3cc(OC)c(OC)cc3C(=O)N3N=C(C)CC3=O)C2=O)cc1 for me?
Result string: 92.3

Query string: Given COC(=O)CNc1nc(N(C)O)nc(N(C)O)n1 , state its recorded growth.
Result string: 34.1

Query string: What does the record list as growth for COc1ccc(C2CC(=O)c3c(nc4ccc(Cl)cc4c3N)C2)cc1 (configuration not stated) ?
Result string: 88.5

Query string: I would be grateful if you could share the reported growth for C=C(C)[C@@H]1CC[C@]2(/C=N/Nc3ccncc3)CC[C@]3(C)[C@H](CC[C@@H]4[C@@]5(C)CCCNC(C)(C)[C@@H]5CC[C@]43C)[C@@H]12 .
Result string: 74.7

Query string: Would you kindly share the measured growth for COc1cc(-c2cc3cc(O)ccc3oc2=O)cc(OC)c1OC ?
Result string: 84.6

Query string: So what does the record say about growth for CCC(=O)c1c(C)[nH]c(C)c1C ?
Result string: 46.4

Query string: # input molecule: CC1=CC(=O)N(c2cccc3c(N4C(=O)C=C(C)C4=O)cccc23)C1=O ; wanted: its growth
Result string: 10.9

Query string: Report growth for N=c1c(S(=O)(=O)c2ccccc2)cc2c(=O)n3ccccc3nc2n1C1CCCC1 please.
Result string: 64.6

Query string: Name the recorded growth for Cc1csc(-c2ccc3c(c2)COC3(CCCN(C)C)c2ccc(F)cc2)c1 (configuration not stated) .
Result string: 27.7

Query string: For the molecule shown here, N#CC1=C(N)Oc2c(c(N)nn2-c2ccccc2)C1c1ccc(Cl)cc1 (configuration not stated) , give the reported growth.
Result string: 86.8

Query string: Param item = COc1ccc2c(c1)C(Br)=C(CCO)C2c1ccccc1 (configuration not stated) ; retrieve measured growth.
Result string: 37

Query string: Which growth is listed for Cc1cc(C)nc(NC(N)=NCCc2ccccc2)n1 ?
Result string: 93.6

Query string: Look at this molecule and give its reported growth. COc1ccc(-c2n/c(=C\c3c(O)[nH]c4ccc(OC)cc34)cc3c2=Nc2ccccc2-3)cc1
Result string: 103

Query string: Any idea what growth was measured for COc1ccc(-c2cc(-c3c(C)oc4cc5occc5c(OC)c4c3=O)nc(N)c2C#N)cc1OC ?
Result string: 38.9

Query string: I have this molecule here, C/C(Cc1ccc(Cl)cc1)=C(/c1ccc(Cl)cc1)c1ccc(OCCN2CCCC2)cc1 , and I need its recorded growth.
Result string: 75.9

Query string: Which growth is reported for this molecule? Cc1ccncc1C(=O)O
Result string: 95.9

Query string: I'd like to know its growth. The molecule in question is N#Cc1cnc2cc(OC[C@@H](O)CO)c(NC(=O)C3CCCC3)cc2c1Nc1ccc(OCc2cccc(F)c2)c(Cl)c1
Result string: 59.4

Query string: I would be grateful if you could share the reported growth for COC(=O)[C@]12CC[C@@H](C)[C@H](C)[C@@H]1C1=CC[C@@H]3[C@@]4(C)C[C@@H](OC(C)=O)[C@H](OC(C)=O)[C@@](C)(COC(C)=O)[C@@H]4[C@H](O)C[C@@]3(C)[C@]1(C)CC2 .
Result string: 11.6

Query string: Recorded growth of CCc1ccccc1NC(=O)c1sc2nc3c(cc2c1N)CCCC3 , please.
Result string: 45.6

Query string: Find the recorded growth belonging to CC(=O)OC(C)COc1ccc(-c2ccccc2)cc1 (configuration not stated) and report it.
Result string: 94.7

Query string: For the molecule shown here, COc1cccc(-c2nn(-c3ccccc3)cc2-c2ccnc(NCCCNS(=O)(=O)c3ccc(Cl)cc3)c2)c1 , give the reported growth.
Result string: 49.1

Query string: If you can, please state the reported growth value of Cc1ccc2[nH]cc(-c3nc(-c4cn(C)c5ncccc45)cs3)c2c1 .
Result string: 77.9

Query string: Return reported growth; argument: N=c1ccc2nc3c(cc(N)c4ccccc43)oc-2c1
Result string: -60

Query string: What value of growth has been recorded for this entry: Clc1cc(Cl)cc(Nc2ccc3c(OCCCN4CCOCC4)cccc3n2)c1
Result string: 56.6

Query string: Data request, read-out growth, for CCOC(=O)N1CCN(CCCCOc2ccc(C(C)(C)CC)cc2)CC1
Result string: 85.8

Query string: Look up growth for this molecule: C=C(C)[C@@H]1CC[C@]2(C(=O)OC)CC[C@]3(C)[C@H](CC[C@@H]4[C@@](C)(CC/C(N)=N/O)[C@H](C(=C)C)CC[C@]43C)[C@@H]12
Result string: 77.7

Query string: I'd like to know its growth. The molecule in question is C#CCN=C[C@]12CC[C@@H](C(=C)C)[C@@H]1[C@H]1CC[C@@H]3[C@@]4(C)CCC(=O)C(C)(C)[C@@H]4CC[C@@]3(C)[C@]1(C)CC2
Result string: 45

Query string: Any idea what its growth is? The molecule is C=COCCCCCCCCCCCCCCCCCC
Result string: 99.7

Query string: Can you share its growth? I mean this molecule: CCOc1ccc(NC(=O)c2ccoc2COc2ccccc2)cc1
Result string: 95.7

Query string: Fill in the blank: the reported growth of CC1(C)C(=O)/C(=C\c2ccco2)C[C@]2(C)[C@H]3CC[C@@H]4[C@@H](C(=O)/C=C/c5ccco5)CC[C@@]4(C)[C@]3(C)CC[C@@H]12 is ____.
Result string: 53.9
